Biological target: FAD-linked sulfhydryl oxidase ALR (Homo sapiens)
Sequence (P55789 whole entry): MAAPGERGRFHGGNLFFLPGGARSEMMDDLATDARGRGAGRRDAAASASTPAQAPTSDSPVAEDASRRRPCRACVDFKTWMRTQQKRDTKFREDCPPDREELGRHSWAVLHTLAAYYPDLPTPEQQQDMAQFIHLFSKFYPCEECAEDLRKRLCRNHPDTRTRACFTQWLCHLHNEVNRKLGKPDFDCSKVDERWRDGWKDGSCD
Test: ALR-catalysed DTT oxidation blockers – biochemical, H2O2 detection, luminescence, cherry-pick, dose response (AID 493248)
Activity calls are given as the source filed them. Cut-off read from the data, not from the text of the source: actives have a measured AC50 and inactives only a lower limit.
Recorded metric: AC50

Answer with the recorded AC50 for the molecule listed here: "CNC(=O)c1cc(Nc2nnc(-c3ccc(O)cc3)c3ccccc23)ccc1OC"
3.86 µM (active)

Report AC50, nothing else, for this molecule: "Cc1c(/C=N\NC(=O)c2ccc(F)cc2)cnn1C"
4.3 µM (active)

For the molecule CC1(c2ccc(O)cc2)NC(=O)N(c2ccccc2)N1 (stereo not drawn) , give its reported AC50.
0.015 µM (active)
